assayed target: T1, human glucagon receptor (human, UniProt P47871 26-477)
T1 construct: whole, on cells; also called hGcgR; GcgR
T1 sequence (P47871 26-477): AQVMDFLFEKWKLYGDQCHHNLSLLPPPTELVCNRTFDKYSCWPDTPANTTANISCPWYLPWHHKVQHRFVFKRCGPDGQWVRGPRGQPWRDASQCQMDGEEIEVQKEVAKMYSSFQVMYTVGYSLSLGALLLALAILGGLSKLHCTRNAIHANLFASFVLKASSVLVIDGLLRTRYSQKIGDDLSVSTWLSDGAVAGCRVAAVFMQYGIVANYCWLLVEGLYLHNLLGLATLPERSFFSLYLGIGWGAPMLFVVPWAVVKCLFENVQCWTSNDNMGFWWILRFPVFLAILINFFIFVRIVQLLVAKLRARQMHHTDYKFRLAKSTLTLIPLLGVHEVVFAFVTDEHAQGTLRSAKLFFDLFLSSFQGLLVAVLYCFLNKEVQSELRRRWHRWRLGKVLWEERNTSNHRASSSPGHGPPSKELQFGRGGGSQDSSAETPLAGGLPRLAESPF
experimental protocol: [125I]-Gcg competition SPA, hGcgR membranes
pKi: −log10 of the molar value.

binder | pKi
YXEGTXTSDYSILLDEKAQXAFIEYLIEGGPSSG (Aib2; αMeF(2F)6; K17((2-[2-(2-Amino-ethoxy)-ethoxy]-acetyl)2-(γ-Glu)-CO-(CH2)16-CO2H); Aib20; C-terminal NH2) [Example 311] | 6.94
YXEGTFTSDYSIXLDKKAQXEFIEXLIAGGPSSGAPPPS (Aib2; αMeL13; K17((2-[2-(2-Amino-ethoxy)-ethoxy]-acetyl)2-(γ-Glu)-CO-(CH2)18-CO2H); Aib20; αMeY25; C-terminal NH2) [Example 367] | 6.11
YXEGTXTSDYSIXLDEKAQXEFIXYLIEGG (Aib2; αMeF(2F)6; αMeL13; K17((2-[2-(2-Amino-ethoxy)-ethoxy]-acetyl)2-(γ-Glu)-CO-(CH2)16-CO2H); Aib20; D-Glu24; C-terminal NH2) [Example 220] | 6.42
